Recorded MIC for the following molecules
System: Mycobacterium kansasii
assayProtocol: Antimycobacterial activity against INH/RIF/rifabutin/OFX/EMB Mycobacterium kansasii CNCTC 6509/96 clinical isolate assessed as bacterial growth inhibition incubated for 7 days by two-fold serial dilution method
Type: functional
experimentalConditions: CNCTC 6509/96, 168 h, time 7 day
measurementName: MIC

>  <smilesCode>
O=C(O)/C=N/NC(=O)c1ccncc1

>  <assayResult>
4 µM

$$$$
>  <smilesCode>
COC(=O)c1ccc(NC(=O)/C(C)=N/NC(=O)c2ccncc2)cc1O

>  <assayResult>
8 µM

$$$$
>  <smilesCode>
C/C(=N\NC(=O)c1ccncc1)C(=O)O

>  <assayResult>
8 µM

$$$$
>  <smilesCode>
Nc1ccc(S(=O)(=O)Nc2ccc(Oc3ccc(Cl)cc3)c(Cl)c2)cc1

>  <assayResult>
125 µM

$$$$
>  <smilesCode>
C/C(=N\NC(=O)c1ccncc1)C(=O)Nc1ccc(S(=O)(=O)Nc2cc(C)on2)cc1

>  <assayResult>
16 µM

$$$$

----------
System: Mycobacterium kansasii
assayProtocol: Antimycobacterial activity against INH/RIF/rifabutin/OFX/EMB Mycobacterium kansasii CNCTC 6509/96 clinical isolate assessed as bacterial growth inhibition incubated for 7 days by two-fold serial dilution method
Type: functional
experimentalConditions: CNCTC 6509/96, 168 h, time 7 day
Recorded MIC for the following compounds
measurementName: MIC (µM)

>  <smilesCode>
C/C(=N\NC(=O)c1ccncc1)C(=O)Nc1ccc(S(=O)(=O)Nc2nccs2)cc1

>  <measurementName>
MIC

>  <unitsLabel>
µM

>  <assayResult>
16

$$$$
>  <smilesCode>
C/C(=N\NC(=O)c1ccncc1)C(=O)Nc1ccc(S(=O)(=O)Nc2nc(C)cc(C)n2)cc1

>  <measurementName>
MIC

>  <unitsLabel>
µM

>  <assayResult>
16

$$$$
>  <smilesCode>
C/C(=N\NC(=O)c1ccncc1)C(=O)Nc1ccc(Sc2ccc([N+](=O)[O-])cc2)cc1

>  <measurementName>
MIC

>  <unitsLabel>
µM

>  <assayResult>
1

$$$$
>  <smilesCode>
C/C(=N\NC(=O)c1ccncc1)C(=O)Nc1ccc(Oc2ccc(Cl)cc2)cc1

>  <measurementName>
MIC

>  <unitsLabel>
µM

>  <assayResult>
1

$$$$
>  <smilesCode>
Cc1cc(C)nc(NS(=O)(=O)c2ccc(NC(=O)/C=N/NC(=O)c3ccncc3)cc2)n1

>  <measurementName>
MIC

>  <unitsLabel>
µM

>  <assayResult>
8

$$$$
>  <smilesCode>
C/C(=N\NC(=O)c1ccncc1)C(=O)NNC(=O)c1ccncc1

>  <measurementName>
MIC

>  <unitsLabel>
µM

>  <assayResult>
8

$$$$
>  <smilesCode>
Nc1ccc(S(=O)(=O)Nc2ccc(Sc3ccc([N+](=O)[O-])cc3)cc2)cc1

>  <measurementName>
MIC

>  <unitsLabel>
µM

>  <assayResult>
8

$$$$
>  <smilesCode>
C/C(=N\NC(=O)c1ccncc1)C(=O)Nc1ccc(-c2ccccc2)cc1

>  <measurementName>
MIC

>  <unitsLabel>
µM

>  <assayResult>
8

$$$$
>  <smilesCode>
O=C(/C=N/NC(=O)c1ccncc1)Nc1ccc(S(=O)(=O)Nc2nccs2)cc1

>  <measurementName>
MIC

>  <unitsLabel>
µM

>  <assayResult>
8

$$$$
>  <smilesCode>
Nc1ccc(S(=O)(=O)Nc2ccccc2Oc2ccccc2)cc1

>  <measurementName>
MIC

>  <unitsLabel>
µM

>  <assayResult>
500

$$$$

----------
System: Pichia kudriavzevii
assayProtocol: Antifungal activity against Candida krusei CCM 8271 measured after 24 to 48 hrs by microdilution broth method
Type: functional
experimentalConditions: time 24-48 hrs

>  <smilesCode>
C/C(=N\NC(=O)c1ccncc1)C(=O)Nc1ccc(S(=O)(=O)Nc2ncccn2)cc1

>  <MIC>
> 500 µM

$$$$
>  <smilesCode>
C/C(=N\NC(=O)c1ccncc1)C(=O)Nc1ccc(Oc2ccc(Cl)cc2)cc1

>  <MIC>
> 500 µM

$$$$
>  <smilesCode>
C/C(=N\NC(=O)c1ccncc1)C(=O)Nc1ccccc1Oc1ccccc1

>  <MIC>
> 500 µM

$$$$
>  <smilesCode>
C/C(=N\NC(=O)c1ccncc1)C(=O)Nc1ccc(S(=O)(=O)Nc2nc(C)cc(C)n2)cc1

>  <MIC>
> 500 µM

$$$$
>  <smilesCode>
C/C(=N\NC(=O)c1ccncc1)C(=O)Nc1ccc(S(N)(=O)=O)cc1

>  <MIC>
> 500 µM

$$$$
>  <smilesCode>
C/C(=N\NC(=O)c1ccncc1)C(=O)Nc1ccc(Oc2ccccc2)cc1

>  <MIC>
> 500 µM

$$$$
>  <smilesCode>
COc1cnc(NS(=O)(=O)c2ccc(NC(=O)/C(C)=N/NC(=O)c3ccncc3)cc2)nc1

>  <MIC>
> 500 µM

$$$$
>  <smilesCode>
C/C(=N\NC(=O)c1ccncc1)C(=O)Nc1ccc(Oc2ccc(Cl)cc2)c(Cl)c1

>  <MIC>
> 500 µM

$$$$
>  <smilesCode>
COc1ccc(NS(=O)(=O)c2ccc(NC(=O)/C(C)=N/NC(=O)c3ccncc3)cc2)nn1

>  <MIC>
> 500 µM

$$$$
>  <smilesCode>
C/C(=N\NC(=O)c1ccncc1)C(=O)Nc1ccc(S(=O)(=O)Nc2nccs2)cc1

>  <MIC>
> 500 µM

$$$$
>  <smilesCode>
C/C(=N\NC(=O)c1ccncc1)C(=O)Nc1ccc(S(=O)(=O)Nc2cc(C)on2)cc1

>  <MIC>
> 500 µM

$$$$

----------
Recorded MIC for the following molecules
Test system: Mycobacterium kansasii
assayProtocol: Antimycobacterial activity against INH/RIF/rifabutin/OFX/EMB Mycobacterium kansasii CNCTC 6509/96 clinical isolate assessed as bacterial growth inhibition incubated for 7 days by two-fold serial dilution method
Type: functional
experimentalConditions: CNCTC 6509/96, 168 h, time 7 day

>  <smilesCode>
C/C(=N\NC(=O)c1ccncc1)C(=O)Nc1ccc(NC(=O)/C(C)=N/NC(=O)c2ccncc2)cc1

>  <MIC, µM>
250

$$$$
>  <smilesCode>
C/C(=N\NC(=O)c1ccncc1)C(=O)NNC(N)=S

>  <MIC, µM>
16

$$$$
>  <smilesCode>
Nc1ccc(S(=O)(=O)Nc2ccc(Oc3ccc(Cl)cc3)cc2)cc1

>  <MIC, µM>
250

$$$$
>  <smilesCode>
COc1cnc(NS(=O)(=O)c2ccc(NC(=O)/C(C)=N/NC(=O)c3ccncc3)cc2)nc1

>  <MIC, µM>
32

$$$$
>  <smilesCode>
NS(=O)(=O)c1ccc(NC(=O)/C=N/NC(=O)c2ccncc2)cc1

>  <MIC, µM>
16

$$$$
>  <smilesCode>
COC(=O)c1ccc(NS(=O)(=O)c2ccc(N)cc2)cc1O

>  <MIC, µM>
1000

$$$$
>  <smilesCode>
Nc1ccc(S(=O)(=O)Nc2ccc(-c3ccccc3)cc2)cc1

>  <MIC, µM>
250

$$$$

----------
System: Mycobacterium kansasii
assayProtocol: Antimycobacterial activity against INH/RIF/rifabutin/OFX/EMB Mycobacterium kansasii CNCTC 6509/96 clinical isolate assessed as bacterial growth inhibition incubated for 7 days by two-fold serial dilution method
Format: functional
experimentalConditions: CNCTC 6509/96, 168 h, time 7 day
Recorded MIC for the following compounds

>  <compound>
C/C(=N\NC(=O)c1ccncc1)C(=O)Nc1ccc(S(N)(=O)=O)cc1

>  <MIC>
32 µM

$$$$
>  <compound>
COc1ccc(NS(=O)(=O)c2ccc(NC(=O)/C(C)=N/NC(=O)c3ccncc3)cc2)nn1

>  <MIC>
32 µM

$$$$
>  <compound>
C/C(=N\NC(=O)c1ccncc1)C(=O)Nc1ccc(Oc2ccccc2)cc1

>  <MIC>
≤ 1 µM

$$$$
>  <compound>
C/C(=N\NC(=O)c1ccncc1)C(=O)Nc1ccc(Oc2ccc(Cl)cc2)c(Cl)c1

>  <MIC>
32 µM

$$$$
>  <compound>
O=C(/C=N/NC(=O)c1ccncc1)Nc1ccc(S(=O)(=O)Nc2ncccn2)cc1

>  <MIC>
8 µM

$$$$
>  <compound>
C/C(=N\NC(=O)c1ccncc1)C(=O)Nc1ccccc1Oc1ccccc1

>  <MIC>
4 µM

$$$$
>  <compound>
C/C(=N\NC(=O)c1ccncc1)C(=O)Nc1ccc(S(=O)(=O)Nc2ncccn2)cc1

>  <MIC>
32 µM

$$$$
>  <compound>
NNC(=O)c1ccncc1 [ISONIAZID]

>  <MIC>
8 µM

$$$$
>  <compound>
Nc1ccc(S(=O)(=O)Nc2ccc(Oc3ccccc3)cc2)cc1

>  <MIC>
250 µM

$$$$
>  <compound>
O=C(/C=N/NC(=O)c1ccncc1)NNC(=O)c1ccncc1

>  <MIC>
8 µM

$$$$

----------
System: Mycobacterium avium
assayProtocol: Antimycobacterial activity against INH/RIF/rifabutin/OFX/EMB resistant Mycobacterium avium CNCTC 330/88 assessed as bacterial growth inhibition incubated for 21 days by two-fold serial dilution method
Assay type: functional
experimentalConditions: CNCTC 330/88, 504 h, time 21 day
Recorded MIC for the following molecules

>  <smilesCode>
C/C(=N\NC(=O)c1ccncc1)C(=O)Nc1ccccc1Oc1ccccc1

>  <MIC>
≥ 1000 µM

$$$$
>  <smilesCode>
O=C(/C=N/NC(=O)c1ccncc1)NNC(=O)c1ccncc1

>  <MIC>
> 1000 µM

$$$$
>  <smilesCode>
Cc1cc(C)nc(NS(=O)(=O)c2ccc(NC(=O)/C=N/NC(=O)c3ccncc3)cc2)n1

>  <MIC>
≥ 1000 µM

$$$$
>  <smilesCode>
C/C(=N\NC(=O)c1ccncc1)C(=O)Nc1ccc(S(=O)(=O)Nc2ncccn2)cc1

>  <MIC>
≥ 1000 µM

$$$$
>  <smilesCode>
O=C(O)/C=N/NC(=O)c1ccncc1

>  <MIC>
> 250 µM

$$$$
>  <smilesCode>
C/C(=N\NC(=O)c1ccncc1)C(=O)Nc1ccc(Oc2ccc(Cl)cc2)cc1

>  <MIC>
500 µM

$$$$
